Molecular target: PyasOBP2
Assay: Fluorescence competitive binding assay with 1-NPN as probe
Design: species or system Pachyrhinus yasumatsui
Conditions: dissociation constant calculated from IC50 by Ki=IC50/(1+[1-NPN]/K1-NPN); PyasOBP2 2 μM, 1-NPN 2 μM; listed as nonanal
Method: Fluorescence competitive binding assays were carried out on an F-2700 fluorescence spectrophotometer (Hitachi, Tokyo, Japan) to determine the binding affinity of PyasOBP2. 1-N-phenyl-naphthylamine (1-NPN) was used as a fluorescent probe ([Pelosi et al., 2006]) with excitation at 337 nm, and the emission spectra were measured from 370 to 550 nm. […]
OUTCOME_MEASURE: Ki

INSERT INTO assay_data (compound, outcome_measure, result) VALUES
  ('CCCCCCCCC=O [Nonanal]', 'Ki', '< 20 µM');

Where do the numbers come from? From paper PMC9091336.
